We begin with a simple list: items and their reported DC50.
# SYSTEM TESTED: HiBit-BRM fusion protein (Homo sapiens, UniProt P51531)
# Construct: expressed in transfected cells
# Sequence (P51531 whole entry, the tested form may be a part): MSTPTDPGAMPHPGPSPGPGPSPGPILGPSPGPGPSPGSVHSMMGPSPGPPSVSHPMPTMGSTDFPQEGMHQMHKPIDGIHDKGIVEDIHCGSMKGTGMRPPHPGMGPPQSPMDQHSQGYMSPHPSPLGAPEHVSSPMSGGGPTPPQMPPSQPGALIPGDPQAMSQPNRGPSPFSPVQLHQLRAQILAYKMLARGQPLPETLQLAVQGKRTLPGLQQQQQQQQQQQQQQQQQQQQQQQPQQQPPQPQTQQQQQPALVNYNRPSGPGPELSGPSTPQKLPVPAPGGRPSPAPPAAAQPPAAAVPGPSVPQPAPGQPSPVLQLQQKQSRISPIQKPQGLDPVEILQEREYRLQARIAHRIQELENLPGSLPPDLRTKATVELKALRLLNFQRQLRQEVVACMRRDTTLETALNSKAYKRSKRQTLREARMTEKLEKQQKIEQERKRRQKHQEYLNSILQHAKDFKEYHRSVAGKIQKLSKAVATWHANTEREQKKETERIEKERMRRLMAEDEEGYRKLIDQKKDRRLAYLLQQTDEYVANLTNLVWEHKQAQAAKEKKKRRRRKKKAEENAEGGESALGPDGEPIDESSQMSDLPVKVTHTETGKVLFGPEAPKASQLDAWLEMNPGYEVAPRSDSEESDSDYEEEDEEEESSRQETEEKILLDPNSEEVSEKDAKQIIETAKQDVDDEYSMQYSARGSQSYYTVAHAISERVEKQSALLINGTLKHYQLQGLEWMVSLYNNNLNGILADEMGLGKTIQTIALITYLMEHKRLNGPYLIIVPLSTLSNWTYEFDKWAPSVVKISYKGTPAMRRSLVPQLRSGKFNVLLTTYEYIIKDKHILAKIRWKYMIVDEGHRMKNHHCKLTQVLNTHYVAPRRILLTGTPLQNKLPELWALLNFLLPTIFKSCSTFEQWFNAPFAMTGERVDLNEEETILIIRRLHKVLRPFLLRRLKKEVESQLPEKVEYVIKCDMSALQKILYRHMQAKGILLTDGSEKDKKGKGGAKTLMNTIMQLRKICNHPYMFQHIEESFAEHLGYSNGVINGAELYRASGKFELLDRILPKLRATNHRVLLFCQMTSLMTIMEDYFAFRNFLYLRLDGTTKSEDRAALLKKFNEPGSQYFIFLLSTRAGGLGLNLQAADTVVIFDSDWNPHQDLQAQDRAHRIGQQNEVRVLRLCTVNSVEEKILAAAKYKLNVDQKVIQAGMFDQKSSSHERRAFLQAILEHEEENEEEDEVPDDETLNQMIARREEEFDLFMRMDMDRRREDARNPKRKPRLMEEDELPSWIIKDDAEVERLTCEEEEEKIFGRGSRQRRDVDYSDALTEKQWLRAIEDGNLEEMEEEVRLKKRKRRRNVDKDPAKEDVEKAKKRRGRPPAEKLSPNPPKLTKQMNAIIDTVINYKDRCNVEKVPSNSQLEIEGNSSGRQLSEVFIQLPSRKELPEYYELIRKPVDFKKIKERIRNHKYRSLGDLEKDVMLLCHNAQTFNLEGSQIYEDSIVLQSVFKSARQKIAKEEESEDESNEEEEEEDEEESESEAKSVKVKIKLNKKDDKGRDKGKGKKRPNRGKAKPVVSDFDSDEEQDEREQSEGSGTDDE
# METHOD: HiBiT-BRM cell-based degradation assay (Nano-Glo HiBiT Lytic Detection, 24 h)
# APPLIED CONDITIONS: HeLa cell line expressing HiBiT-BRM, read-out: BRM HiBit Degradation IC50

For orientation, consider the following solved cases.
| COMPOUND | SYSTEM TESTED | DC50 |
| --- | --- | --- |
| Cc1ncsc1-c1ccc([C@H](C)NC(=O)[C@@H]2C[C@@H](O)CN2C(=O)[C@@H](c2cc(OCCCN3CC(c4[nH]c5nnc(-c6ccccc6O)cc5c4C)C3)no2)C(C)C)cc1 (racemic) [Compound 229] | HiBit-BRM fusion protein (Homo sapiens, UniProt P51531) | > 1000 nM |
| Cc1ncsc1-c1ccc(CNC(=O)[C@@H]2C[C@@H](O)CN2C(=O)[C@@H](NC(=O)[C@H]2CC[C@@H](c3cnc(N4CCC(c5cc6cc(-c7ccccc7O)nnc6[nH]5)CC4)nc3)CC2)C(C)(C)C)cc1 (racemic) [Compound 94] | HiBit-BRM fusion protein (Homo sapiens, UniProt P51531) | > 10 nM |
| Cc1ncsc1-c1ccc([C@H](C)NC(=O)[C@@H]2C[C@@H](O)CN2C(=O)[C@@H](c2cc(OCCNCCC(=O)N3CC(c4c[nH]c5nnc(-c6ccccc6O)cc45)C3)no2)C(C)C)cc1 (racemic) [Compound 230] | HiBit-BRM fusion protein (Homo sapiens, UniProt P51531) | > 1000 nM |
| Cc1ncsc1-c1ccc([C@H](C)NC(=O)[C@@H]2C[C@@H](O)CN2C(=O)[C@@H](c2cc(N3CCC(C(=O)N[C@@H]4CCc5[nH]c6nnc(-c7ccccc7O)cc6c5C4)CC3)no2)C(C)C)cc1 (single isomer, unassigned) [Compound 146] | HiBit-BRM fusion protein (Homo sapiens, UniProt P51531) | > 10 nM |
| Cc1ncsc1-c1ccc([C@H](C)NC(=O)C2C[C@@H](O)CN2C(=O)[C@@H](c2cc(OCCN3C[C@H]4C[C@H](c5[nH]c6nnc(-c7ccccc7O)cc6c5C)C[C@H]4C3)no2)C(C)C)cc1 (single isomer, unassigned) [Compound 112] | HiBit-BRM fusion protein (Homo sapiens, UniProt P51531) | < 10 nM |

# input Can you share its DC50? I mean this compound: Cc1ncsc1-c1ccc([C@H](C)NC(=O)[C@@H]2C[C@@H](O)CN2C(=O)[C@@H](c2cc(OCCCN3CC4(CC(c5c[nH]c6nnc(-c7ccccc7O)cc56)C4)C3)no2)C(C)C)cc1 (racemic) [Compound 211]
# output > 10 nM

# input Same question, Cc1ncsc1-c1ccc(CNC(=O)[C@@H]2C[C@@H](O)CN2C(=O)[C@@H](NC(=O)CCNC23CC(c4cc5cc(-c6ccccc6O)nnc5[nH]4)(C2)C3)C(C)(C)C)cc1 (racemic) [Compound 296] this time
# output > 1000 nM

# input Next: Cc1ncsc1-c1ccc([C@H](C)NC(=O)[C@@H]2C[C@@H](O)CN2C(=O)[C@@H](c2cc(N3CCN(Cc4cc5cc(-c6ccccc6O)nnc5[nH]4)CC3)no2)C(C)C)cc1 (racemic) [Compound 199]
# output > 10 nM

# input Also, Cc1ncsc1-c1ccc([C@H](C)NC(=O)[C@@H]2C[C@@H](O)CN2C(=O)[C@@H](c2cc(N3CCN(CCC(=O)N4CC(c5cc6cc(-c7ccccc7O)nnc6[nH]5)C4)CC3)no2)C(C)C)cc1 (racemic) [Compound 268] please.
# output > 100 nM
